- System: human PD-L1 (human) (UniProt Q9NZQ7)
- Sequence (Q9NZQ7 19-290 limits assumed): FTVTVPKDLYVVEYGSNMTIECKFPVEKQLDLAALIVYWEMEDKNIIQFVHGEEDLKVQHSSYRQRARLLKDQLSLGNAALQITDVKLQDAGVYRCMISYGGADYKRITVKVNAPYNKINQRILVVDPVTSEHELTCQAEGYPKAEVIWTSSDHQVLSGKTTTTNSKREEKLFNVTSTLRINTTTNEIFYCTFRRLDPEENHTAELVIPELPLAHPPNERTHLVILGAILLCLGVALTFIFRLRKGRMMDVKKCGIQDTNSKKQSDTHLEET
Measured Quantity: IL-2 luciferase reporter, fold increase over WT CD80-IgV-Fc at 5.0 nM (fold)

Binder	Measured Value
variant CD80 IgV-Fc E35D/D46V/M47V/V68M/L85Q (Fc fusion) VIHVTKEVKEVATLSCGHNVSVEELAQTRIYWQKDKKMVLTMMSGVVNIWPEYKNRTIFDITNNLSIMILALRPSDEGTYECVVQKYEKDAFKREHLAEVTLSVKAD	8.5
variant CD80 IgV-Fc M47V/V68M (Fc fusion) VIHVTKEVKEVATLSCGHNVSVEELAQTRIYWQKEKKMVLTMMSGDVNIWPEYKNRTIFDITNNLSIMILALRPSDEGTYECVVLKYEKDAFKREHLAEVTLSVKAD	4.8
variant CD80 IgV-Fc E35D/M47V/N48K/V68M/L85Q (Fc fusion) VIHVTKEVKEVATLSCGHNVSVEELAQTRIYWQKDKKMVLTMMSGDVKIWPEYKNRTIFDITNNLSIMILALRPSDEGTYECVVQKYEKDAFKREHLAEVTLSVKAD	7.9
variant CD80 IgV-Fc E35D/M47V (Fc fusion) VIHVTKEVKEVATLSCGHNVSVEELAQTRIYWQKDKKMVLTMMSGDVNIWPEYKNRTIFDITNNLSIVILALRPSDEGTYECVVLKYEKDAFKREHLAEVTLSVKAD	4.7
